Would you mind telling me the reported morphology score of each entry?
- Test system: Vero E6 infected with SARS-CoV-2
- experiment: morphology score (similarity to uninfected cells); higher = more like uninfected cells
- stated conditions: 24 h
Give bare numbers.

CC(C(=O)O)c1ccc2c(c1)CC(=O)c1ccccc1S2 (stereo not given) [zaltoprofen] (10 µM) : 0.241
O=S(=O)(O)c1ccc2[nH]c(-c3ccccc3)nc2c1 [phenylbenzimidazole-sulfonic-acid] (10 µM) : 0.087
CCN(CC)CCOc1ccc(/C(=C(\Cl)c2ccccc2)c2ccccc2)cc1 [clomifene] (0.833333 µM) : 0.172

Provide reported morphology score for each item, in the same order as listed.
1. CCOc1c(N2CCOCC2)cnn(C)c1=O [emorfazone] (10 µM)
2. CN(C)C/C=C(/c1ccc(Br)cc1)c1cccnc1 [zimelidine] (10 µM)

A:
0.185
0.166

Values were extracted from the supplement of paper PMC13380429.
